# Heart annotations
# Test system: PC-3 PIP/flu tumor-bearing mice
# run-description: Biodistribution in PC-3 PIP/flu tumor-bearing mice
# condition-details: 2 h p.i., i.v.

{"columns": ["compound", "Heart (% IA/g)"],
 "data": [
  ["O=C([O-])CN1CCN(CC(=O)[O-])CCN(CC(=O)NCC2CCC(C(=O)NC(Cc3ccc4ccccc4c3)C(=O)NCCCCC(NC(=O)NC(CCC(=O)O)C(=O)O)C(=O)O)CC2)CCN(CC(=O)[O-])CC1.[44Sc+3] (stereo not shown) [^44Sc-PSMA-617]", 0.36],
  ["O=C([O-])CN1CCN(CC(=O)[O-])CCN(CC(=O)NCC2CCC(C(=O)NC(Cc3ccc4ccccc4c3)C(=O)NCCCCC(NC(=O)NC(CCC(=O)O)C(=O)O)C(=O)O)CC2)CCN(CC(=O)[O-])CC1.[68Ga+3] (stereo not shown) [^68Ga-PSMA-617]", 0.09],
  ["O=C([O-])CN(CCN(CC(=O)[O-])Cc1cc(CCC(=O)NCCCCCC(=O)NCCCC[C@H](NC(=O)N[C@@H](CCC(=O)O)C(=O)O)C(=O)O)ccc1[O-])Cc1cc(CCC(=O)O)ccc1[O-].[68Ga+3] [^68Ga-PSMA-11]", 0.18],
  ["O=C([O-])CN1CCN(CC(=O)[O-])CCN(CC(=O)NCC2CCC(C(=O)N[C@@H](Cc3ccc4ccccc4c3)C(=O)NCCCC[C@H](NC(=O)N[C@@H](CCC(=O)O)C(=O)O)C(=O)O)CC2)CCN(CC(=O)[O-])CC1.[177Lu+3] (stereo partly shown) [^177Lu-PSMA-617]", 0.06]
]}

* * *

# Blood annotations
# System: PC-3 PIP/flu tumor-bearing mice
# run-description: Biodistribution in PC-3 PIP/flu tumor-bearing mice
# condition-details: 30 min p.i., i.v.

{"columns": ["compound", "assay-system", "Blood [% IA/g]"],
 "data": [
  ["O=C([O-])CN1CCN(CC(=O)[O-])CCN(CC(=O)NCC2CCC(C(=O)N[C@@H](Cc3ccc4ccccc4c3)C(=O)NCCCC[C@H](NC(=O)N[C@@H](CCC(=O)O)C(=O)O)C(=O)O)CC2)CCN(CC(=O)[O-])CC1.[177Lu+3] (stereo partly shown) [^177Lu-PSMA-617]", "PC-3 PIP/flu tumor-bearing mice", 3.05],
  ["O=C([O-])CN1CCN(CC(=O)[O-])CCN(CC(=O)NCC2CCC(C(=O)NC(Cc3ccc4ccccc4c3)C(=O)NCCCCC(NC(=O)NC(CCC(=O)O)C(=O)O)C(=O)O)CC2)CCN(CC(=O)[O-])CC1.[68Ga+3] (stereo not shown) [^68Ga-PSMA-617]", "PC-3 PIP/flu tumor-bearing mice", 3.46],
  ["O=C([O-])CN1CCN(CC(=O)[O-])CCN(CC(=O)NCC2CCC(C(=O)NC(Cc3ccc4ccccc4c3)C(=O)NCCCCC(NC(=O)NC(CCC(=O)O)C(=O)O)C(=O)O)CC2)CCN(CC(=O)[O-])CC1.[44Sc+3] (stereo not shown) [^44Sc-PSMA-617]", "PC-3 PIP/flu tumor-bearing mice", 2.52],
  ["O=C([O-])CN(CCN(CC(=O)[O-])Cc1cc(CCC(=O)NCCCCCC(=O)NCCCC[C@H](NC(=O)N[C@@H](CCC(=O)O)C(=O)O)C(=O)O)ccc1[O-])Cc1cc(CCC(=O)O)ccc1[O-].[68Ga+3] [^68Ga-PSMA-11]", "PC-3 PIP/flu tumor-bearing mice", 2.55]
]}

* * *

# System: PC-3 PIP/flu tumor-bearing mice
# run-description: Biodistribution in PC-3 PIP/flu tumor-bearing mice
# condition-details: 15 min p.i., i.v.
# Salivary glands annotations
parameter-measured: Salivary glands (% IA/g)

{"columns": ["compound", "assay-system", "parameter-measured", "meas-value"],
 "data": [
  ["O=C([O-])CN1CCN(CC(=O)[O-])CCN(CC(=O)NCC2CCC(C(=O)NC(Cc3ccc4ccccc4c3)C(=O)NCCCCC(NC(=O)NC(CCC(=O)O)C(=O)O)C(=O)O)CC2)CCN(CC(=O)[O-])CC1.[44Sc+3] (stereo not shown) [^44Sc-PSMA-617]", "PC-3 PIP/flu tumor-bearing mice", "Salivary glands", 2.27],
  ["O=C([O-])CN1CCN(CC(=O)[O-])CCN(CC(=O)NCC2CCC(C(=O)N[C@@H](Cc3ccc4ccccc4c3)C(=O)NCCCC[C@H](NC(=O)N[C@@H](CCC(=O)O)C(=O)O)C(=O)O)CC2)CCN(CC(=O)[O-])CC1.[177Lu+3] (stereo partly shown) [^177Lu-PSMA-617]", "PC-3 PIP/flu tumor-bearing mice", "Salivary glands", 2.11],
  ["O=C([O-])CN1CCN(CC(=O)[O-])CCN(CC(=O)NCC2CCC(C(=O)NC(Cc3ccc4ccccc4c3)C(=O)NCCCCC(NC(=O)NC(CCC(=O)O)C(=O)O)C(=O)O)CC2)CCN(CC(=O)[O-])CC1.[68Ga+3] (stereo not shown) [^68Ga-PSMA-617]", "PC-3 PIP/flu tumor-bearing mice", "Salivary glands", 2.30],
  ["O=C([O-])CN(CCN(CC(=O)[O-])Cc1cc(CCC(=O)NCCCCCC(=O)NCCCC[C@H](NC(=O)N[C@@H](CCC(=O)O)C(=O)O)C(=O)O)ccc1[O-])Cc1cc(CCC(=O)O)ccc1[O-].[68Ga+3] [^68Ga-PSMA-11]", "PC-3 PIP/flu tumor-bearing mice", "Salivary glands", 2.73]
]}

* * *

# Tested on: PC-3 PIP/flu tumor-bearing mice
# run-description: Biodistribution in PC-3 PIP/flu tumor-bearing mice
# condition-details: 2 h p.i., i.v.

{"columns": ["molecule", "Muscle / % IA/g"],
 "data": [
  ["O=C([O-])CN1CCN(CC(=O)[O-])CCN(CC(=O)NCC2CCC(C(=O)NC(Cc3ccc4ccccc4c3)C(=O)NCCCCC(NC(=O)NC(CCC(=O)O)C(=O)O)C(=O)O)CC2)CCN(CC(=O)[O-])CC1.[44Sc+3] (stereo not shown) [^44Sc-PSMA-617]", 0.36],
  ["O=C([O-])CN1CCN(CC(=O)[O-])CCN(CC(=O)NCC2CCC(C(=O)NC(Cc3ccc4ccccc4c3)C(=O)NCCCCC(NC(=O)NC(CCC(=O)O)C(=O)O)C(=O)O)CC2)CCN(CC(=O)[O-])CC1.[68Ga+3] (stereo not shown) [^68Ga-PSMA-617]", 0.05],
  ["O=C([O-])CN(CCN(CC(=O)[O-])Cc1cc(CCC(=O)NCCCCCC(=O)NCCCC[C@H](NC(=O)N[C@@H](CCC(=O)O)C(=O)O)C(=O)O)ccc1[O-])Cc1cc(CCC(=O)O)ccc1[O-].[68Ga+3] [^68Ga-PSMA-11]", 0.06],
  ["O=C([O-])CN1CCN(CC(=O)[O-])CCN(CC(=O)NCC2CCC(C(=O)N[C@@H](Cc3ccc4ccccc4c3)C(=O)NCCCC[C@H](NC(=O)N[C@@H](CCC(=O)O)C(=O)O)C(=O)O)CC2)CCN(CC(=O)[O-])CC1.[177Lu+3] (stereo partly shown) [^177Lu-PSMA-617]", 0.04]
]}

* * *

# Lung annotations
# Test system: PC-3 PIP/flu tumor-bearing mice
# run-description: Biodistribution in PC-3 PIP/flu tumor-bearing mice
# condition-details: 15 min p.i., i.v.
parameter-measured: Lung (% IA/g)

{"columns": ["molecule", "meas-value"],
 "data": [
  ["O=C([O-])CN1CCN(CC(=O)[O-])CCN(CC(=O)NCC2CCC(C(=O)NC(Cc3ccc4ccccc4c3)C(=O)NCCCCC(NC(=O)NC(CCC(=O)O)C(=O)O)C(=O)O)CC2)CCN(CC(=O)[O-])CC1.[44Sc+3] (stereo not shown) [^44Sc-PSMA-617]", 5.24],
  ["O=C([O-])CN1CCN(CC(=O)[O-])CCN(CC(=O)NCC2CCC(C(=O)N[C@@H](Cc3ccc4ccccc4c3)C(=O)NCCCC[C@H](NC(=O)N[C@@H](CCC(=O)O)C(=O)O)C(=O)O)CC2)CCN(CC(=O)[O-])CC1.[177Lu+3] (stereo partly shown) [^177Lu-PSMA-617]", 4.76],
  ["O=C([O-])CN1CCN(CC(=O)[O-])CCN(CC(=O)NCC2CCC(C(=O)NC(Cc3ccc4ccccc4c3)C(=O)NCCCCC(NC(=O)NC(CCC(=O)O)C(=O)O)C(=O)O)CC2)CCN(CC(=O)[O-])CC1.[68Ga+3] (stereo not shown) [^68Ga-PSMA-617]", 4.70],
  ["O=C([O-])CN(CCN(CC(=O)[O-])Cc1cc(CCC(=O)NCCCCCC(=O)NCCCC[C@H](NC(=O)N[C@@H](CCC(=O)O)C(=O)O)C(=O)O)ccc1[O-])Cc1cc(CCC(=O)O)ccc1[O-].[68Ga+3] [^68Ga-PSMA-11]", 3.87]
]}
